test: Maximum plasma concentration following oral administration of 30 umol/kg; type: ADME, organism-based; parameters: dose 30 umol/kg, route oral
reportedEndpoint: Cmax (nM)
Report the figure in nM without appending any unit label.

Please give the measured Cmax for this compound: CC1(C)Oc2ccc(C#N)cc2[C@H](N(Cc2ncc[nH]2)c2ccc(Cl)cc2)[C@H]1O 1300

* * *

test: Apparent terminal elimination half life in rats; type: ADME, organism-based; conditions: rat, in vivo
reportedEndpoint: half-life (h)
Report the figure in h without appending any unit label.

Please give the measured half-life for this compound: CC1(C)Oc2ccc(C#N)cc2[C@H](N(Cc2ncc[nH]2)c2ccc(Cl)cc2)[C@H]1O 3

* * *

organism: Rattus norvegicus; assay: Antiischemic potency is determined by EC25 value for increase in time to the onset of contracture in globally ischemic isolated perfused rat hearts.; assay type: functional
Checkbox rule: EC25 lower than 6 µM = yes; EC25 not lower than 6 µM = no.

A selection of reference data follows.
• CCOC(=O)CN(c1ccc(Cl)cc1)[C@H]1c2cc(C#N)ccc2OC(C)(C)[C@@H]1O = no
• COC(=O)c1cc2ccccc2n1[C@@H]1c2cc(C#N)ccc2OC(C)(C)[C@H]1O = no
• CC1(C)Oc2ccc(C#N)cc2[C@H](N(Cc2ncco2)c2ccccc2)[C@H]1O = yes
• CCOC(=O)CN(c1ccccc1)[C@H]1c2cc(C#N)ccc2OC(C)(C)[C@@H]1O = yes
• CC1(C)Oc2ccc(C#N)cc2[C@H](N(Cc2ncc[nH]2)c2ccc(Cl)cc2)[C@H]1O = yes
• CCOC(=O)CN(c1nc(C)cs1)[C@H]1c2cc(C#N)ccc2OC(C)(C)[C@@H]1O = no
• CC1(C)Oc2ccc(C#N)cc2[C@H](N(Cc2ncc[nH]2)c2ccc(F)cc2)[C@H]1O = yes
• CCOC(=O)CN(c1ccc(F)cc1)[C@H]1c2cc(C#N)ccc2OC(C)(C)[C@@H]1O = yes
• CC1(C)Oc2ccc(C#N)cc2[C@H](Nc2ccccc2)[C@H]1O = yes
• CC1(C)Oc2ccc(C#N)cc2[C@@H](N2CCCC2=O)[C@@H]1O = no

Is 6 µM strictly greater than the compound's reported EC25? compound: Cc1noc(CN(c2ccccc2)[C@H]2c3cc(C#N)ccc3OC(C)(C)[C@@H]2O)n1 no

Next compound: CCOP(=O)(CN(c1ccc(F)cc1)[C@H]1c2cc(C#N)ccc2OC(C)(C)[C@@H]1O)OCC yes

Next compound: CC1(C)Oc2ccc(C#N)cc2[C@@H](/N=C(\NC#N)Nc2ccc(Cl)cc2)[C@@H]1O yes

Next compound: CCOC(=O)NN(c1ccccc1)[C@H]1c2cc(C#N)ccc2OC(C)(C)[C@@H]1O yes
